// data source = ChEMBL document CHEMBL1148617

Target: Adenosine receptor A2b (Homo sapiens) (UniProt P29275)
Sequence (P29275 whole entry): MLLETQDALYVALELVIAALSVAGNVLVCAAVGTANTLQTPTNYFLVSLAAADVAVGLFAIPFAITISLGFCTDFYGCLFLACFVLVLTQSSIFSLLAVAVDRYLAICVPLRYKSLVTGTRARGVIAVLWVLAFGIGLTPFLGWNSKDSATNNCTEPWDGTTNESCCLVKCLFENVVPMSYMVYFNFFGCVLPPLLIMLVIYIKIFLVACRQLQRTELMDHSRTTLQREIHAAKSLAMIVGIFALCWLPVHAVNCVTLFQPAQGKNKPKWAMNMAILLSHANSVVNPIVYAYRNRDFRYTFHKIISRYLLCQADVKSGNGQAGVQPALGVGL
Test: Displacement of [3H]DPCPX from recombinant human adenosine A2B receptor expressed in HEK293 cells at 0.01 uM
property-measured: inhibition
Answer shape: numeric part, then the unit.

Q: Provide inhibition value for the following compound: CCCn1c(=O)c2[nH]c(-c3ccc(OCC(=O)Nc4cc(OC)nc(OC)n4)cc3)cc2n(CCC)c1=O
A: 30%

Q: Provide inhibition value for the following compound: COCCCn1c(=O)c2[nH]c(-c3ccc(OCC(=O)Nc4ccc(Br)cc4)cc3)cc2n(CCCOC)c1=O
A: 45%

Q: Provide inhibition value for the following compound: CCCn1c(=O)c2[nH]c(-c3ccc(OCC(=O)Nc4cc(C)ccn4)cc3)cc2n(CCC)c1=O
A: 25%

Q: Provide inhibition value for the following compound: CC(Oc1ccc(-c2cc3c([nH]2)c(=O)n(C)c(=O)n3C)cc1)C(=O)O (stereo not given)
A: 5%

Q: Provide inhibition value for the following compound: CCCn1c(=O)c2[nH]c(-c3ccc(OCC(=O)Nc4ccc(F)cc4)cc3)cc2n(CCC)c1=O
A: 70%

Q: Provide inhibition value for the following compound: Cn1c(=O)c2[nH]c(-c3ccc(OCC(=O)N[C@H]4C(O)O[C@H](CO)[C@@H](O)[C@@H]4O)cc3)cc2n(C)c1=O (stereo not given in full)
A: 7%

Q: Provide inhibition value for the following compound: O=C(COc1ccc(-c2cc3c([nH]2)c(=O)n(CC2CC2)c(=O)n3CC2CC2)cc1)Nc1ccccc1
A: 57%

Q: Provide inhibition value for the following compound: CCCn1c(=O)c2[nH]c(-c3ccc(OC(C)(C)C(=O)Nc4ccccc4)cc3)cc2n(CCC)c1=O
A: 51%

Q: Provide inhibition value for the following compound: CCCn1c(=O)c2[nH]c(-c3ccc(OCC(=O)Nc4ccc(C(C)(C)C)cc4)cc3)cc2n(CCC)c1=O
A: 51%

Q: Provide inhibition value for the following compound: CCCn1c(=O)c2[nH]c(-c3ccc(OCC(=O)Nc4ccc(O)cc4)cc3)cc2n(CCC)c1=O
A: 24%

Q: Provide inhibition value for the following compound: CCCn1c(=O)c2[nH]c(-c3ccc(OCC(=O)Nc4ccccc4O)cc3)cc2n(CCC)c1=O
A: 56%

Q: Provide inhibition value for the following compound: CC(Oc1ccc(-c2cc3c([nH]2)c(=O)n(C)c(=O)n3C)cc1)C(=O)Nc1ccccc1 (stereo not given)
A: 73%

Q: Provide inhibition value for the following compound: CCCn1c(=O)c2[nH]c(-c3ccc(OCC(=O)Nc4ccc(CC(=O)OCC)cc4)cc3)cc2n(CCC)c1=O
A: 32%

Q: Provide inhibition value for the following compound: CCCn1c(=O)c2[nH]c(-c3ccc(OCC(=O)NCc4ccccc4)cc3)cc2n(CCC)c1=O
A: 78%

Q: Provide inhibition value for the following compound: CCCn1c(=O)c2[nH]c(-c3ccc(OCC(=O)Nc4ccc(NC(C)=O)cc4)cc3)cc2n(CCC)c1=O
A: 23%

Q: Provide inhibition value for the following compound: CCCn1c(=O)c2[nH]c(-c3ccc(OCC(=O)Nc4ccc(OC)cc4)cc3)c(Cl)c2n(CCC)c1=O
A: 15%

Q: Provide inhibition value for the following compound: CCCn1c(=O)c2[nH]c(-c3ccc(OCC(=O)N[C@H](C)[C@H](O)c4ccccc4)cc3)cc2n(CCC)c1=O
A: 14%

Q: Provide inhibition value for the following compound: CCCn1c(=O)c2[nH]c(-c3ccc(OCC(=O)Nc4ncccc4C)cc3)cc2n(C)c1=O
A: 25%

Q: Provide inhibition value for the following compound: CCCn1c(=O)c2[nH]c(-c3ccc(OCC(=O)Nc4ccc(C(C)=O)cc4)cc3)c(Cl)c2n(CCC)c1=O
A: 8%

Q: Provide inhibition value for the following compound: CCCn1c(=O)c2[nH]c(-c3ccc(OCC(=O)Nc4ccccc4F)cc3)c(Cl)c2n(CCC)c1=O
A: 5%

Q: Provide inhibition value for the following compound: CCCn1c(=O)c2[nH]c(-c3ccc(OCC(=O)NC(CCl)c4ccccc4)cc3)cc2n(CCC)c1=O (stereo not given)
A: 25%

Q: Provide inhibition value for the following compound: Cn1c(=O)c2[nH]c(-c3ccc(OCC(=O)NCc4ccc(F)cc4)cc3)cc2n(C)c1=O
A: 36%

Q: Provide inhibition value for the following compound: COc1cc(OCC(=O)Nc2ccc(F)cc2)ccc1-c1cc2c([nH]1)c(=O)n(C)c(=O)n2C
A: 23%

Q: Provide inhibition value for the following compound: CCCn1c(=O)c2[nH]c(-c3ccc(N(C=O)CC(=O)O)cc3)cc2n(CCC)c1=O
A: 9%

Q: Provide inhibition value for the following compound: Cn1c(=O)c2[nH]c(-c3cccc(OCC(=O)Nc4ccc(Br)cc4)c3)cc2n(C)c1=O
A: 15%

Q: Provide inhibition value for the following compound: Cn1c(=O)c2[nH]c(-c3ccc(OC(C)(C)C(=O)O)cc3)cc2n(C)c1=O
A: 3%

Q: Provide inhibition value for the following compound: CCCn1c(=O)c2[nH]c(-c3ccc(OCC(=O)Nc4ccc(F)cc4)cc3)c(Br)c2n(CCC)c1=O
A: 30%

Q: Provide inhibition value for the following compound: CCCn1c(=O)c2[nH]c(-c3ccc(OCC(=O)Nc4cccc(F)c4)cc3)c(Cl)c2n(CCC)c1=O
A: 6%

Q: Provide inhibition value for the following compound: CCCn1c(=O)c2[nH]c(-c3ccc(OCC(=O)Nc4ccc(F)cc4O)cc3)cc2n(CCC)c1=O
A: 23%

Q: Provide inhibition value for the following compound: Cn1c(=O)c2[nH]c(-c3ccc(OCC(=O)Nc4ccc(Br)cc4)cc3)cc2n(C)c1=O
A: 84%

* * *

Biological target: Adenosine receptor A2a (Homo sapiens, UniProt P29274)
Sequence (P29274 whole entry): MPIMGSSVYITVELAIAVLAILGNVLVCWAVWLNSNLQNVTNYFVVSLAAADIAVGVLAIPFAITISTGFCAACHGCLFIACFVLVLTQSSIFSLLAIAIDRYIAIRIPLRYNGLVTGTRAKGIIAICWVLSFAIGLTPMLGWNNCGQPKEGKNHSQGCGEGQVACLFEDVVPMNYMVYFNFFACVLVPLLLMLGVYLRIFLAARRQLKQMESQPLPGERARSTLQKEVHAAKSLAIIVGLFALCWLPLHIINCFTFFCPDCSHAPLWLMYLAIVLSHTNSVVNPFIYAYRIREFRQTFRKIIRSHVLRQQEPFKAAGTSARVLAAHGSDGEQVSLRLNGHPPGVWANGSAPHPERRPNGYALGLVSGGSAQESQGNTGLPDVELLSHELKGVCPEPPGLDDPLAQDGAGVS
Test: Displacement of [3H]ZM-241385 from recombinant human adenosine A2A receptor expressed in HeLa cells at 0.1 uM
Short version: inhibition at least 20% is True, less is False.

Q: Textbook exercise: given the entry CCCn1c(=O)c2[nH]c(-c3ccc(OCC(=O)Nc4ccc(C)cn4)cc3)cc2n(CCC)c1=O , state whether its inhibition is greater than or equal to 20%.
A: True

Q: Textbook exercise: given the entry COc1cc(OCC(=O)O)ccc1-c1cc2c([nH]1)c(=O)n(C)c(=O)n2C , state whether its inhibition is greater than or equal to 20%.
A: False

Q: Textbook exercise: given the entry CCCn1c(=O)c2[nH]c(-c3ccc(OC(C)(C)C(=O)Nc4ccc(Br)cc4)cc3)cc2n(CCC)c1=O , state whether its inhibition is greater than or equal to 20%.
A: True

Q: Textbook exercise: given the entry Cn1c(=O)c2[nH]c(-c3ccc(OCC(=O)O)cc3)c(Br)c2n(C)c1=O , state whether its inhibition is greater than or equal to 20%.
A: False

Q: Textbook exercise: given the entry CCCn1c(=O)c2[nH]c(-c3ccc(OCC(=O)OCC)cc3)cc2n(CCC)c1=O , state whether its inhibition is greater than or equal to 20%.
A: True

Q: Textbook exercise: given the entry CCCn1c(=O)c2[nH]c(-c3ccc(OCC(=O)Nc4cc(F)ccc4O)cc3)cc2n(CCC)c1=O , state whether its inhibition is greater than or equal to 20%.
A: True

Q: Textbook exercise: given the entry CCCn1c(=O)c2[nH]c(-c3ccc(OCC(=O)Nc4ccc(F)cc4)cc3)cc2n(CCC)c1=O , state whether its inhibition is greater than or equal to 20%.
A: True

Q: Textbook exercise: given the entry Cn1c(=O)c2[nH]c(-c3ccc(OCC(=O)Nc4ccc(CCN)cc4)cc3)cc2n(C)c1=O , state whether its inhibition is greater than or equal to 20%.
A: True

Q: Textbook exercise: given the entry CCCn1c(=O)c2[nH]c(-c3ccc(OCC(=O)O)cc3)c(Cl)c2n(CCC)c1=O , state whether its inhibition is greater than or equal to 20%.
A: False

Q: Textbook exercise: given the entry CCCn1c(=O)c2[nH]c(-c3ccc(OCC(=O)Nc4ccc(C)cc4)cc3)c(Cl)c2n(CCC)c1=O , state whether its inhibition is greater than or equal to 20%.
A: True

Q: Textbook exercise: given the entry COc1cc(OCC(=O)Nc2ccc(F)cc2)ccc1-c1cc2c([nH]1)c(=O)n(C)c(=O)n2C , state whether its inhibition is greater than or equal to 20%.
A: True

Q: Textbook exercise: given the entry CCOC(=O)COc1ccc(-c2cc3c([nH]2)c(=O)n(C)c(=O)n3CCCOC)cc1 , state whether its inhibition is greater than or equal to 20%.
A: False

Q: Textbook exercise: given the entry CC(=O)c1ccc(NC(=O)COc2ccc(-c3cc4c([nH]3)c(=O)n(C)c(=O)n4C)cc2)cc1 , state whether its inhibition is greater than or equal to 20%.
A: True

Q: Textbook exercise: given the entry CCCn1c(=O)c2[nH]c(-c3ccc(OCC(=O)O)cc3OC)cc2n(CCC)c1=O , state whether its inhibition is greater than or equal to 20%.
A: False

Q: Textbook exercise: given the entry CCCn1c(=O)n(C)c(=O)c2[nH]c(-c3ccc(OCC(=O)Nc4ccc(F)cc4)cc3)cc21 , state whether its inhibition is greater than or equal to 20%.
A: True

Q: Textbook exercise: given the entry O=C(COc1ccc(-c2cc3c([nH]2)c(=O)n(CC(F)(F)F)c(=O)n3CC(F)(F)F)cc1)Nc1ccc(Br)cc1 , state whether its inhibition is greater than or equal to 20%.
A: False

Q: Textbook exercise: given the entry Cn1c(=O)c2[nH]c(-c3ccc(OCC(=O)Nc4ccc(F)cc4)cc3)cc2n(C)c1=O , state whether its inhibition is greater than or equal to 20%.
A: True

Q: Textbook exercise: given the entry CCCn1c(=O)c2[nH]c(-c3ccc(OCC(=O)Nc4ccc(C(C)=O)cc4)cc3)c(Cl)c2n(CCC)c1=O , state whether its inhibition is greater than or equal to 20%.
A: True
